The reported measurements were obtained from patent US8389739B1.

# target or system: mRORγ LBD (Mus musculus)
# Construct: made in house; host or cells: Sf9 insect cells, baculovirus; cleared lysate used directly
# Sequence (P51450 251-516): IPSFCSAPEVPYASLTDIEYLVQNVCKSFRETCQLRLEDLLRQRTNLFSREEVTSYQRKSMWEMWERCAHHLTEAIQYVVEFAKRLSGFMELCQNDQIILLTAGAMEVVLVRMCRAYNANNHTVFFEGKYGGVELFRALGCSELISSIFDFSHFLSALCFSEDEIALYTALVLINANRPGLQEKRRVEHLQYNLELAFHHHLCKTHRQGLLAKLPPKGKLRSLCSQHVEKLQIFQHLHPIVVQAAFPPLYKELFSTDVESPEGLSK
# method description: Biochemical assay, coregulatory peptide recruitment to GST-RORγ LBD (FRET)
# conditions: Table 3; peptide K and 1 μM OR-942; inhibition of the OR-942 baseline by 50%; read-out: Assay EC50 in micromolar biochemical

>  <chemical structure>
C[C@@H]1CC[C@@]2(OC1)O[C@H]1C[C@H]3[C@@H]4CC[C@H]5C[C@@H](O)CC[C@]5(C)[C@H]4C(=O)[C@@H](O)[C@]3(C)[C@H]1[C@@H]2C

>  <EC50>
12.7 µM

$$$$
